Biological target: Furin (Homo sapiens) (UniProt P09958)
Sequence (P09958 108-714 limits assumed): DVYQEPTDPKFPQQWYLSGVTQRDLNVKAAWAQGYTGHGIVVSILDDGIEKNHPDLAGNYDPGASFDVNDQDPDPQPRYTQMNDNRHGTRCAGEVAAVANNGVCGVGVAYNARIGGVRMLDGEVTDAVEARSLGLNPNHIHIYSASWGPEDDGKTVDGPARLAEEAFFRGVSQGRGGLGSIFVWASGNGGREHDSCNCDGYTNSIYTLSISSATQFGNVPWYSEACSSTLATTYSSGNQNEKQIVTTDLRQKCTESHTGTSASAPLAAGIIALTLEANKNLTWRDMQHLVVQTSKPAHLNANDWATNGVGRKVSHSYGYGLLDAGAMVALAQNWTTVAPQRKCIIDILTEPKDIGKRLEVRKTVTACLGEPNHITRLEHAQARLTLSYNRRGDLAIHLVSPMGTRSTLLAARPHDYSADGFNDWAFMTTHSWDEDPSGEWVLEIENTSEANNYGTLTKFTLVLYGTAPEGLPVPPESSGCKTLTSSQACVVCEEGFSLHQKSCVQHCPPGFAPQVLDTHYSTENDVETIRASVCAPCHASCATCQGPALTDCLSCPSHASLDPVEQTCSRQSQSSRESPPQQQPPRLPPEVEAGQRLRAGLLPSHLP
Experiment: human furin inhibitors, primary screen, biochemical, fluorescence intensity (AID 463115)
Conditions: purified furin, fluorogenic substrate cleavage; at 30 µM unless noted
The whole screen tested about 220,000 compounds, of which about 130 (0.059%) were called active. Cut-off read from the data, not from the text of the source: active = inhibition above about 25%; inactive = the rest. This is one part of a sample in which actives are shown more often than they occur.
Lab note: assign the record to one of yes for active, no for inactive

See these solved cases before continuing.
Cc1ccc(-n2nc3cc(C)c(NC(=O)c4cccnc4)cc3n2)cc1 :: yes
O=C(c1cccc([N+](=O)[O-])c1)N1CCN(C(=O)c2ccco2)CC1 :: no

How was `Cc1ccc(NC(=S)N(CCN(C)C)Cc2cccs2)cc1C` classified in this test? no

How was O=C1CC(Cc2ccc(Cl)cc2)C(=O)N1c1cc(Cl)ccn1 (stereo not drawn) classified in this test? no

How was `O=C(Nc1ccccc1-c1nnn(CC(=O)N2CCCc3ccccc32)n1)c1cccc(Cl)c1` classified in this test? no

How was `O=C(O)CC/C(=N\NC(=O)c1ccc(F)cc1)c1ccc(Br)cc1` classified in this test? no

How was `CCOC(=O)c1nnn2c1nc(N1CCN(c3ccccc3)CC1)c1ccccc12` classified in this test? no

How was `COc1ccccc1N1CCN(/N=C\C(Br)=C\c2ccccc2)CC1` classified in this test? no

How was `CC(C)(O)C#Cc1ncc(C(F)(F)F)cc1Cl` classified in this test? no

How was CC1=C(C)CC(C(=O)NC(C)CCc2ccccc2)C(C(=O)O)C1 (stereo not drawn) classified in this test? no
